assay: qHTS RealTime-Glo MT Cell Viability Assay in HepG2 cells - 0 hour (AID 1224889); settings: RealTime-Glo luminescence; series mostly up to 76.8 µM; note: % is set by controls: 0 for no effect and ±100 for the full control effect; nearly all actives have a fitted effect of over 50% in size
Inconclusive results are not listed. Calls of active or inactive are those of the source. Calls come from the whole dose curve; as a rule, active = well fitted cell-killing curve with a large enough effect in the repeat runs; inconclusive = weak or mixed curves, or effect the other way; inactive = flat fitted curve, though single readings scatter.

{"molecule": "C[C@H]1C[C@@H](O)CC(C)(C)C1", "activity change, negative = cytotoxicity": "inactive"}
{"molecule": "CN(C)CCCSc1ccccc1NC(=O)/C=C/c1ccccc1", "activity change, negative = cytotoxicity": "inactive"}
{"molecule": "CCC=O", "activity change, negative = cytotoxicity": "inactive"}
{"molecule": "CC1=CC(C)C(C=O)CC1 (stereo not given)", "activity change, negative = cytotoxicity": "inactive"}
{"molecule": "O=c1cc(CO)occ1O", "activity change, negative = cytotoxicity": "inactive"}
{"molecule": "CN1N=C(C(N)=O)CCC1=O", "activity change, negative = cytotoxicity": "inactive"}
{"molecule": "FC(F)OC(Cl)C(F)(F)F (stereo not given)", "activity change, negative = cytotoxicity": "inactive"}
{"molecule": "CCCCCCCCCCCCCC=O", "activity change, negative = cytotoxicity": "15.5% [at 6.97 µM] (inactive)"}
{"molecule": "CO/N=C(/C(=O)N[C@@H]1C(=O)N2C(C(=O)OCOC(=O)C(C)(C)C)=C(C)CS[C@H]12)c1csc(N)n1", "activity change, negative = cytotoxicity": "inactive"}
{"molecule": "CC(C)OC(=O)c1ccccc1", "activity change, negative = cytotoxicity": "inactive"}
{"molecule": "CC(C)(C)NCCNC(C)(C)C", "activity change, negative = cytotoxicity": "inactive"}
{"molecule": "Oc1ccc(C2CNCCc3c2cc(O)c(O)c3Cl)cc1 (stereo not given)", "activity change, negative = cytotoxicity": "inactive"}
{"molecule": "O=c1[nH]c(=O)n([C@H]2C[C@H](O)[C@@H](CO)O2)cc1I", "activity change, negative = cytotoxicity": "inactive"}
{"molecule": "O=C1CCCN1C1CCCCC1", "activity change, negative = cytotoxicity": "inactive"}
{"molecule": "CCC(C)S (stereo not given)", "activity change, negative = cytotoxicity": "5.41% [at 2.72 µM] (inactive)"}

====

assay: qHTS assay for identifying genotoxic compounds that show differential cytotoxicity against isogenic chicken DT40 cell lines with known DNA damage response pathways - wild type cell line (AID 743012); settings: DT40 wild type chicken cells viability, CellTiter-Glo, 40 h; series mostly up to 68.4 µM; note: % is set by controls: 0 for no effect and ±100 for the full control effect; nearly all actives have a fitted effect of over 60% in size
Records with an inconclusive call do not appear. The source made the active and inactive calls. Calls come from the whole dose curve; as a rule, active = well fitted cell-killing curve with a large enough effect in the repeat runs; inconclusive = weak or mixed curves, or effect the other way; inactive = no such curve, though single readings can be large or run the other way.

{"smiles-record": "C=CCCCCCCCCC=O", "outcome": "inactive"}
{"smiles-record": "CN1CC(=O)NC1=N", "outcome": "inactive"}
{"smiles-record": "OCCCC1CCCCC1", "outcome": "inactive"}
{"smiles-record": "C=CCS(=O)(=O)O", "outcome": "inactive"}
{"smiles-record": "O=[N+]([O-])c1ccc(F)cc1F", "outcome": "inactive"}
{"smiles-record": "O=c1cc(CO)occ1O", "outcome": "inactive"}
{"smiles-record": "CS(=O)(=O)O", "outcome": "inactive"}
{"smiles-record": "O=C1NC(=O)[C@@]2(CCOc3ccc(F)cc32)N1", "outcome": "inactive"}
{"smiles-record": "COc1ccc2c(c1)c(CC(=O)OCC(=O)O)c(C)n2C(=O)c1ccc(Cl)cc1", "outcome": "inactive"}
{"smiles-record": "C=CCOCC(CC)(CO)COCC=C", "outcome": "inactive"}
{"smiles-record": "C/C=C(\\C)C#N", "outcome": "inactive"}
{"smiles-record": "NC(=O)Nc1ccccc1", "outcome": "inactive"}
{"smiles-record": "NS(=O)(=O)c1ccc(C(=O)O)cc1", "outcome": "inactive"}
{"smiles-record": "N[C@@H](C(=O)N[C@@H]1C(=O)N2C(C(=O)O)=C(Cl)CS[C@H]12)c1ccccc1", "outcome": "inactive"}
{"smiles-record": "CCOC(=O)C(=O)OCC", "outcome": "inactive"}

====

Biological target: Thyrotropin receptor (Homo sapiens) (UniProt P16473)
Sequence (P16473 whole entry, looked up): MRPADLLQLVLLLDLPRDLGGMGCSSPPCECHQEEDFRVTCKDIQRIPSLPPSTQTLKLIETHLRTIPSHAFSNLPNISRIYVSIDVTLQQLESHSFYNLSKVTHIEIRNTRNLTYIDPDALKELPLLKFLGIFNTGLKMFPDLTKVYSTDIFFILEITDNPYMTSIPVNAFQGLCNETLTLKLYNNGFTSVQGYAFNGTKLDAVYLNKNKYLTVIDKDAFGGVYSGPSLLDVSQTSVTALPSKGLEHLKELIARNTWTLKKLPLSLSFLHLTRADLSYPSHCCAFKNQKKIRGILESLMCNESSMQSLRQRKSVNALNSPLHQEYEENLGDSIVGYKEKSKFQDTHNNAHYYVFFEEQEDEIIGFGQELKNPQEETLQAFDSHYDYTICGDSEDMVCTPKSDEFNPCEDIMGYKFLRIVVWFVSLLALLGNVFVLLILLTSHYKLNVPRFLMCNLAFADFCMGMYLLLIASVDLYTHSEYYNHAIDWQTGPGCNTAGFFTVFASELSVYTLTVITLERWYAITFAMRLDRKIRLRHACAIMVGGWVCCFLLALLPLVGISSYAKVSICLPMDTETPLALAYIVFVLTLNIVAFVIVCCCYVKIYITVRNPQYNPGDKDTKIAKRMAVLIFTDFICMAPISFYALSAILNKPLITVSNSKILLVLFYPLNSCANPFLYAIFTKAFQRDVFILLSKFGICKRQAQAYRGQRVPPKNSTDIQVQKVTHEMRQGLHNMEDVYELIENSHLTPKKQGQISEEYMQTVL
Assay: qHTS assay to identify small molecule antagonists of the thyroid stimulating hormone receptor (TSHR) signaling pathway (AID 1259385); note: % is set by controls: 0 for no effect and ±100 for the full control effect; nearly all actives have a fitted effect of over 20% in size
Conditions: TSHR-HEK293 cAMP HTRF, TSH-stimulated antagonist mode; series mostly up to 92.4 µM
Description: U.S. Tox21 Program National Center for Advancing Translational Sciences [NCATS] NIH Chemical Genomics Center [NCGC] U.S. Environmental Protection Agency [EPA] National Institutes of Environmental Health Sciences [NIEHS] National Toxicology Program [NTP] […] Tox21 Assay Protocol Summary: TSHR-Hek293 cells were dispensed at 800 cells/4uL/well in 1536-well white plates using a Multidrop dispenser. […] The fluorescence intensity in the plates was measured using an Envision plate reader. […]
Records with an inconclusive call do not appear. Active and inactive are the calls of the source. Calls come from the whole dose curve.

{"compound": "CC(C)NC(=O)NC(C)C", "activity change, negative = inhibition": "inactive"}
{"compound": "Cc1[nH]c(=O)c(C#N)cc1-c1ccc2nccn2c1", "activity change, negative = inhibition": "inactive"}
{"compound": "CCCC(=O)O[C@]1(C(=O)CO)CC[C@H]2[C@@H]3CCC4=CC(=O)CC[C@]4(C)[C@H]3[C@@H](O)C[C@@]21C", "activity change, negative = inhibition": "inactive"}
{"compound": "CCCCCCCCCCCCCC=O", "activity change, negative = inhibition": "-5.31% [at 8.39 µM] (inactive)"}
{"compound": "NCCCNCCSP(=O)(O)O", "activity change, negative = inhibition": "-3.62% [at 8.39 µM] (inactive)"}
{"compound": "O=C1CC2CC1C1CCCC21 (stereo unspecified)", "activity change, negative = inhibition": "inactive"}

====

assay: qHTS assay to identify small molecule agonists of the NFkB signaling pathway (AID 1159509); settings: NFkB-bla ME-180 cells, beta-lactamase FRET ratio, 5 h; series mostly up to 61 µM; note: % is set by controls: 0 for no effect and ±100 for the full control effect
Inconclusive results are not listed. Calls of active or inactive are those of the source. Calls come from the whole dose curve; as a rule, active = well fitted curve in the direction sought with a large enough effect in the signal ratio in the repeat runs (not every such curve was filed as active); inconclusive = weak or mixed curves, or a change in a side signal; inactive = no such curve, though single readings can be large or run the other way; the % refers to the signal ratio.

{"compound": "Nc1cc(=O)[nH]c(N)n1", "activation": "inactive"}
{"compound": "c1ccc([C@H]2CN3CCSC3=N2)cc1", "activation": "inactive"}
{"compound": "CC/C=C\\CCOC(C)=O", "activation": "inactive"}
{"compound": "Nc1c2c(nc3ccccc13)CCCC2O (configuration not stated)", "activation": "inactive"}
{"compound": "N[C@@H](C(=O)N[C@@H]1C(=O)N2C(C(=O)O)=C(Cl)CS[C@H]12)c1ccccc1", "activation": "-0.195% [at 6.95 µM] (inactive)"}
{"compound": "CC(C)OC(=O)c1ccccc1", "activation": "inactive"}
{"compound": "COC(=O)CC(C)=O", "activation": "inactive"}

====

experiment: qHTS RealTime-Glo MT Cell Viability Assay in HepG2 cells - 24 hour (AID 1224867); settings: RealTime-Glo luminescence; series mostly up to 76.8 µM; note: % is set by controls: 0 for no effect and ±100 for the full control effect; nearly all actives have a fitted effect of over 50% in size
Results filed as inconclusive are left out. Activity calls are given as the source filed them. The call rests on the fitted dose curve; in most records, active means well fitted cell-killing curve with a large enough effect in the repeat runs; inconclusive means weak or mixed curves; inactive means flat fitted curve, though single readings scatter.
experimental-readout: activity change, negative = cytotoxicity

{"molecule": "CC(=O)OCC(CCn1cnc2cnc(N)nc21)COC(C)=O", "value-measured": "inactive"}
{"molecule": "CN1CCN(c2cc3c(cc2F)c(=O)c(C(=O)O)cn3-c2ccc(F)cc2)CC1", "value-measured": "inactive"}
{"molecule": "N=C(N)c1ccc(OCCCOc2ccc(C(=N)N)cc2)cc1", "value-measured": "inactive"}
{"molecule": "N[C@H]1CN(c2c(F)cc3c(=O)c(C(=O)O)cn(C4C[C@H]4F)c3c2Cl)CC12CC2 (stereo partly drawn)", "value-measured": "inactive"}
{"molecule": "CN1C(=O)N(C)C(O)C1O (stereo not drawn)", "value-measured": "inactive"}
{"molecule": "CN1CCC(=C2c3ccccc3CC(=O)c3sccc32)CC1", "value-measured": "inactive"}
{"molecule": "O=c1cc(CO)occ1O", "value-measured": "inactive"}
{"molecule": "CCCCOCCOCCOCCCC", "value-measured": "inactive"}
{"molecule": "COc1nc(N)nc2c1ncn2[C@@H]1O[C@H](CO)[C@@H](O)[C@@H]1O", "value-measured": "inactive"}
{"molecule": "COC(=O)NN", "value-measured": "inactive"}
{"molecule": "CCCCOCCOCCOCc1cc2c(cc1CCC)OCO2", "value-measured": "inactive"}
{"molecule": "CC(C[N+](C)(C)C)OC(N)=O (stereo not drawn)", "value-measured": "inactive"}
{"molecule": "CCc1ccc(O)c(OC)c1", "value-measured": "inactive"}

====

test: qHTS assay to identify small molecule agonists of the hypoxia (HIF-1) signaling pathway (AID 1224846); details: HRE-bla ME-180 cells, beta-lactamase ratio, 17 h; series mostly up to 76.8 µM; note: % is set by controls: 0 for no effect and ±100 for the full control effect
Results filed as inconclusive are left out. Calls of active or inactive are those of the source. Calls follow the shape of the dose curve; as a rule, active = well fitted activation curve with a large enough effect in the signal ratio in the repeat runs (not every such curve was filed as active); inconclusive = weak or mixed curves; inactive = flat fitted curve, though single readings scatter; the % refers to the signal ratio.

{"compound": "C=C(C)CS(=O)(=O)O", "activation": "inactive"}
{"compound": "C=CCCCCCCCCC=O", "activation": "inactive"}
{"compound": "CCCN1CCCC[C@H]1C(=O)Nc1c(C)cccc1C", "activation": "inactive"}
{"compound": "OC1CCCCC1c1ccccc1 (centres undefined)", "activation": "inactive"}
{"compound": "CCCCNC(=O)NCCCC", "activation": "inactive"}
{"compound": "CCOC(=O)c1c(C)n(C)c2ccc(O)cc12", "activation": "inactive"}
{"compound": "OC(CCN1CCCCC1)(c1ccccc1)C1CC2C=CC1C2 (centres undefined)", "activation": "inactive"}
{"compound": "Oc1ccc(C2CNCCc3c2cc(O)c(O)c3Cl)cc1 (centres undefined)", "activation": "inactive"}
{"compound": "COC(=O)CC(C)=O", "activation": "inactive"}
{"compound": "CCCCCCCCS(=O)(=O)Cl", "activation": "inactive"}
{"compound": "COc1cc(C(=O)N2CCCCCCC2)cc(OC)c1OC", "activation": "inactive"}
{"compound": "COC(=O)c1ccc(C)cc1C1=NC(C)(C(C)C)C(=O)N1 (centres undefined)", "activation": "inactive"}
{"compound": "CN(C)CCCNCCCN(C)C", "activation": "inactive"}
{"compound": "C[C@H](NC(CCc1ccccc1)C(=O)O)C(=O)N1CCC[C@H]1C(=O)O (some centres undefined)", "activation": "inactive"}
